Biological target: T1, human TNFR2 (expressed on cells) (human, UniProt P20333 23-461)
T1 construct: also called hTNFR2; human TNF Receptor 2
T1 sequence: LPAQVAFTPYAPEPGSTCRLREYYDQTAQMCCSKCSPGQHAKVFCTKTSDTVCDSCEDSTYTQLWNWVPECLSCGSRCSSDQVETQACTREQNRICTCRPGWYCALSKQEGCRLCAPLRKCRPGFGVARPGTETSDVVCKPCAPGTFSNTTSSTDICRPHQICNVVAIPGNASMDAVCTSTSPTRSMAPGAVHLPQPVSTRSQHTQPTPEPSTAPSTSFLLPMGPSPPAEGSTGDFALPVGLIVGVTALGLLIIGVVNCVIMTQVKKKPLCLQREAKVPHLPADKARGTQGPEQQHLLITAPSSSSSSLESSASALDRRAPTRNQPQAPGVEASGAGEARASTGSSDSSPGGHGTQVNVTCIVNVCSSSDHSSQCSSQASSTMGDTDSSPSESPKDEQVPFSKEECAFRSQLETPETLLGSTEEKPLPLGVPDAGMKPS
Experiment: flow cytometry competition, CHO cells with human TNFR2, antibody 0.625 µg/mL, Biotin-hTNFα 0.5 µg/mL
This listing pairs binders with measured percentage of tested cells that had Streptavidin signals.

binder	observed.result
BC-1A8-IgG1 (antibody, V domains shown, Fully human VH/VL joined to the human IgG1 subtype, kappa light chain (RenMab mice)) VH: QVQLQQSGPGLVKPSQTLSLTCAISGDSVSSNSAAWNWIRQSPSRGLEWLGRTYYRSKWYNDYALSVKSRITINPETSKNQFSLQLNSVTPEDTAVYYCAREDGVGGTKDYFDYWGQGTLVTVSS VL: DIQMTQSPSSLSASVGDRVTITCQASQDIDNYLNWYQQKPGKAPKLLIYDVSNLEIGVPSRFSGSGSGTDFTFTISSLQPEDIATYYCQQYDNLPLTFGQGTRLEIK	58.6%
BC-1B6-IgG1 (antibody, V domains shown, Human VH/VL joined to the human IgG1 subtype) VH: QVQLVESGGGVVQPGRSLRLSCAASGFTFSNFGMHWVRQAPGKGLEWVAVIWYEGSDKYYADSVKGRFTISRDNSKNTLYLQMNSLRAEDTAVYYCARDSSWGFLLYGMDVWGQGTTVTVSS VL: DVVMTQSPLSLPVTLGQPASISCRSSRSLEYSDGNTYLNWFQQRPGQSPRRLIYKVSNRDSGVPDRFSGSGSGTAFTLKISGVEAEDVGVYYCMQGTHWPPTFGGGTKVEIK	80.4%
BC-1F4-IgG1 (antibody, V domains shown, Human VH/VL joined to the human IgG1 subtype) VH: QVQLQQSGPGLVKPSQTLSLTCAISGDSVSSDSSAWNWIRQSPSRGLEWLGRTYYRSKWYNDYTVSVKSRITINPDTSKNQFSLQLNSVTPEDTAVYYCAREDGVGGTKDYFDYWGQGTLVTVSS VL: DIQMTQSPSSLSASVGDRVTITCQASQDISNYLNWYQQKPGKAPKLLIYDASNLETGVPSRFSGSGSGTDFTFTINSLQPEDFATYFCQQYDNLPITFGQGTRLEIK	61.9%

Ask: Please report the measured percentage of tested cells that had Streptavidin signals for BC-1C3-IgG1 (antibody, V domains shown, Human VH/VL joined to the human IgG1 subtype) VH: QVQLVESGGGVVHPGKSLRLSCAASGFTFNIYGMHWVRQAPGKGLEWVALISYDGNDKYFADSVKGRFTISRDNSKNTLYLQMNSLRAEDTAVYYCAKAVDTAVVTFFDYWGQGTLVTVSS VL: EIVMTQSPVTLSVSPGERATLSCRASQSVSSNLAWYQQKPGQAPRLLIYSASTRATGIPARFSGSGSGTEFTLTISSLQSEDLAVYYCQQYSNWPFTFGPGTKVDIK
Reply: 77.3%

Origin of values: patent US20250019454A1
